- System: U251 CNS
- experiment: NCI-60 one-dose screen, 48 h
- conditionLabel: 10 µM unless noted
This is part of a sample that, as a whole, favours compounds with a hit. Of some 83,000 tested, about 20% had one in any assay. The source made the active and inactive calls. How the source made its calls: active means growth percent below 10; inactive means the rest.
Labels: y for active, n for inactive

molecule | assayedSystem | answerLabel
N#CCc1ccc(CC#N)cc1 | U251 CNS | n
CC1(C)C=Cc2c(ccc3c2[N+]([O-])=C2C3=C[C@@]34NC(=O)[C@]5(CCCN5C3=O)C[C@@H]4C2(C)C)O1 | U251 CNS | n
C#COc1cccc(Nc2ncnc3cc(NC(=O)CF)ccc23)c1 | U251 CNS | n
c1ccc2c(c1)sc1ccccc12 | U251 CNS | n
CC[C@H](CC[C@@H](C)[C@H]1CC[C@H]2[C@@H]3CC[C@H]4C[C@]5(CC[C@]4(C)[C@H]3CC[C@]12C)OO[C@](C)(C(F)(F)F)O5)C(C)C | U251 CNS | n
C=CC1CN2CCC1CC2C(O)c1ccnc2ccccc12 (centres undefined) | U251 CNS | n
CC1=CC(=Nc2ccc(N(CCCl)CCCl)cc2)C=C(C)C1=O | U251 CNS | n
O=[N+]([O-])c1c(Cl)cc(Cl)c([N+](=O)[O-])c1Cl | U251 CNS | n
CN1[C@@H](CC(=O)c2ccccc2)CCC[C@H]1CC(=O)c1ccccc1 | U251 CNS | n
CC(=O)c1cccc(S(=O)(=O)F)c1 | U251 CNS | n
C[C@]12CCC3[C@@H](C[C@@H]4SC(Nc5ccccc5)=N[C@@]45CC(=O)CC[C@]35C)[C@@H]1CCC2=O (some centres undefined) | U251 CNS | y
COCC1OC2OC3C(COC)OC(OC4C(COC)OC(OC5C(COC)OC(OC6C(COC)OC(OC7C(COC)OC(OC8C(COC)OC(OC1C(O)C2O)C(O)C8O)C(O)C7O)C(O)C6O)C(O)C5O)C(O)C4O)C(O)C3O (centres undefined) (tested in a mixture with another compound) | U251 CNS | n
Cc1ccc(S(=O)(=O)n2cc([C@@]3(O)C[C@H](CSC#N)OC3=O)c3ccccc32)cc1 | U251 CNS | n
Cc1cc2c(cc1-c1ccnc(/C=C/C(=O)O)c1)C(C)(C)CCC2(C)C | U251 CNS | n
Cc1cc(C(C)(C)C)ccc1O | U251 CNS | n
COc1c(O)cc2c(c1OC)-c1ccc(SC)c(=O)cc1C(NC(C)=O)CC2 (centres undefined) | U251 CNS | y
Cc1ccc(P(=O)(O)O)cc1 | U251 CNS | n
O=[N+]([O-])c1cc(Br)c(O)c(Br)c1 | U251 CNS | n
CC1=C([Te]c2ccccc2)C(=O)c2ccccc2C1=O | U251 CNS | y
CC[C@@H](C)C(=O)O[C@H]1[C@H](O)[C@H]2[C@@H](CN3C[C@@H](C)CC[C@H]3[C@@]2(C)O)[C@@H]2C[C@]34O[C@]5(O)[C@@H](OC(=O)[C@@](C)(O)CC)CC[C@@]3(C)[C@@H]5[C@@H](OC(C)=O)[C@@H](OC(C)=O)[C@H]4[C@@]21O | U251 CNS | n
Cc1ccc(N2CCN(CCC#N)CC2)cc1 | U251 CNS | n
O=[N+]([O-])c1ccc2scc3c4ccccc4nc-3c2c1 | U251 CNS | y
CCOC(=O)c1cncn1C(C)c1ccccc1 (centres undefined) | U251 CNS | n
CC(=O)OC1CC2(O)C(CCC3(C)C(c4ccc(=O)oc4)CCC32O)C2(C)CCC(OC3OC(CO)C(O)C(O)C3O)C=C12 (centres undefined) | U251 CNS | y
CNC(=O)CCl | U251 CNS | n
C[C@]12CC[C@H]3[C@@H](CC=C4c5nc(N)sc5CC[C@@]43C)[C@@H]1CC[C@@H]2O | U251 CNS | n
O=C/C=C/c1ccco1 | U251 CNS | n
Oc1cc(Cl)ccc1Oc1ccc(Cl)cc1Cl | U251 CNS | y
S=P(SP(=S)(c1ccccc1)c1ccccc1)(c1ccccc1)c1ccccc1 | U251 CNS | n
COC12CC3C4=CCOC5CC(=O)N6c7ccccc7C1(CCN2C4)C6C53 (centres undefined) | U251 CNS | n
CC[C@H](C)[C@H]1O[C@]2(C=C[C@@H]1C)C[C@@H]1C[C@@H](C/C=C(\C)[C@@H](O[C@H]3C[C@H](OC)[C@@H](O[C@H]4C[C@H](OC)[C@@H](NC)[C@H](C)O4)[C@H](C)O3)[C@@H](C)/C=C/C=C3\CO[C@@H]4[C@H](O)C(C)=C[C@@H](C(=O)O1)[C@]34O)O2 | U251 CNS | y
O=c1[nH]c(=O)[nH]c(=O)[nH]1 | U251 CNS | n
CCC1(CCSC#N)C(=O)NC(=O)NC1=O | U251 CNS | n
C[C@]12CC[C@H]3[C@@H](CC=C4c5nc(-c6ccc(Br)cc6)sc5CC[C@@]43C)[C@@H]1CC[C@@H]2O | U251 CNS | n
COc1ccc2c(c1)c(-c1nc(-c3cn(C)c4ncccc34)cs1)cn2CCCCN1CCOCC1 | U251 CNS | y
O=C(CBr)OCCOC(=O)CBr | U251 CNS | n
N#Cc1ccc(Cl)cc1 | U251 CNS | n
CCC(=O)C(CC(C)N1CCCCCC1)(c1ccccc1)c1ccccc1 (centres undefined) | U251 CNS | n
O=c1c2ccccc2nc(-c2ccccc2Cl)n1-c1nnc(C(F)(F)F)s1 | U251 CNS | n
